- PROCEDURE DETAILS: Ratio of unbound AUC in brain to plasma of […] rat at 0.4 or 1 mg/kg, iv and 1 or 5 mg/kg, po
- Type: ADME, organism-based
QUANTITY NAME: Kp uu
Lab note: record the figure alone, no unit after it.

// query Output Kp uu of N#Cc1ccnc(Nc2cc(C3CCN(C4COC4)CC3)n(C3CCCC3)n2)c1
// result 0.35

---

- SUBJECT OF TEST: Mitogen-activated protein kinase kinase kinase 12 (Homo sapiens, UniProt Q12852)
- Sequence (Q12852 whole entry, the tested form may be a part): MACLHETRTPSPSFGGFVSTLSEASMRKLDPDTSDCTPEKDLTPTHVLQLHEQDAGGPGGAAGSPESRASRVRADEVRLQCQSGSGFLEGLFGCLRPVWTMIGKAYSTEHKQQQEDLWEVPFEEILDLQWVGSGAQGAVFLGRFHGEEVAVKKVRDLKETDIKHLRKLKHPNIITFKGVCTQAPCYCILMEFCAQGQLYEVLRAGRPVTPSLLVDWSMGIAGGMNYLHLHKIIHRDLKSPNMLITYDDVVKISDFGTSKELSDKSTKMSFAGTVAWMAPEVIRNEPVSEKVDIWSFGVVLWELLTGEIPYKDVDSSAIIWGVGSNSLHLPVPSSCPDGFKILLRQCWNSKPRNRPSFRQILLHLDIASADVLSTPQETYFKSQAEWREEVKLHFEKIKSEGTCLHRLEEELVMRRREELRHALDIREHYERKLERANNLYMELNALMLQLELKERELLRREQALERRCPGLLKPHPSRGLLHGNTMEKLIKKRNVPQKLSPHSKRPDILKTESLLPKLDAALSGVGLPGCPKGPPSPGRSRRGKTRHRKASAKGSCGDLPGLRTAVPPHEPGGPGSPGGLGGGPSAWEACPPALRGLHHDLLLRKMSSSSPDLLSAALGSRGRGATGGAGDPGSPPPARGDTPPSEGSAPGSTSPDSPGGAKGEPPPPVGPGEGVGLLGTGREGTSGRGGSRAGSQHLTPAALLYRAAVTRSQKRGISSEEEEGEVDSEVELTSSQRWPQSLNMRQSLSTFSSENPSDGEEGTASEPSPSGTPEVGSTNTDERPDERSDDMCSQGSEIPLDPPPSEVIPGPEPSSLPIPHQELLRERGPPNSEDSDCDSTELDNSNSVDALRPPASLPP
- PROCEDURE DETAILS: Inhibition of N-terminally GST- tagged human DLK catalytic domain (1 to 520 amino acids) using N-terminally HIS-tagged MKK4 K131M as substrate incubated for 60 mins by TR-FRET assay
QUANTITY NAME: Ki (nM)
Hi! Could you send only the number? It should be in nM, unit omitted.

// query State Ki on Mitogen-activated protein kinase kinase kinase 12 (Homo sapiens, UniProt Q12852). Entry: N#Cc1ccnc(Nc2cc(C3CCN(C4COC4)C3)n(C3CCCC3)n2)c1 (racemic)
// result 25

// query Check Mitogen-activated protein kinase kinase kinase 12 (Homo sapiens, UniProt Q12852) data and give Ki for N#Cc1ccnc(Nc2nc(C3CC3)c(C3CCN(C4COC4)CC3)s2)c1 .
// result 569

// query Write down the reported Ki (system: Mitogen-activated protein kinase kinase kinase 12 (Homo sapiens, UniProt Q12852)) of N#Cc1ccnc(Nc2cc(C3CCN(C4COC4)CC3)n(C3CCCC3)n2)c1
// result 42

---

- SUBJECT OF TEST: Mitogen-activated protein kinase kinase kinase 9 (Homo sapiens, UniProt P80192)
- Sequence (P80192 whole entry): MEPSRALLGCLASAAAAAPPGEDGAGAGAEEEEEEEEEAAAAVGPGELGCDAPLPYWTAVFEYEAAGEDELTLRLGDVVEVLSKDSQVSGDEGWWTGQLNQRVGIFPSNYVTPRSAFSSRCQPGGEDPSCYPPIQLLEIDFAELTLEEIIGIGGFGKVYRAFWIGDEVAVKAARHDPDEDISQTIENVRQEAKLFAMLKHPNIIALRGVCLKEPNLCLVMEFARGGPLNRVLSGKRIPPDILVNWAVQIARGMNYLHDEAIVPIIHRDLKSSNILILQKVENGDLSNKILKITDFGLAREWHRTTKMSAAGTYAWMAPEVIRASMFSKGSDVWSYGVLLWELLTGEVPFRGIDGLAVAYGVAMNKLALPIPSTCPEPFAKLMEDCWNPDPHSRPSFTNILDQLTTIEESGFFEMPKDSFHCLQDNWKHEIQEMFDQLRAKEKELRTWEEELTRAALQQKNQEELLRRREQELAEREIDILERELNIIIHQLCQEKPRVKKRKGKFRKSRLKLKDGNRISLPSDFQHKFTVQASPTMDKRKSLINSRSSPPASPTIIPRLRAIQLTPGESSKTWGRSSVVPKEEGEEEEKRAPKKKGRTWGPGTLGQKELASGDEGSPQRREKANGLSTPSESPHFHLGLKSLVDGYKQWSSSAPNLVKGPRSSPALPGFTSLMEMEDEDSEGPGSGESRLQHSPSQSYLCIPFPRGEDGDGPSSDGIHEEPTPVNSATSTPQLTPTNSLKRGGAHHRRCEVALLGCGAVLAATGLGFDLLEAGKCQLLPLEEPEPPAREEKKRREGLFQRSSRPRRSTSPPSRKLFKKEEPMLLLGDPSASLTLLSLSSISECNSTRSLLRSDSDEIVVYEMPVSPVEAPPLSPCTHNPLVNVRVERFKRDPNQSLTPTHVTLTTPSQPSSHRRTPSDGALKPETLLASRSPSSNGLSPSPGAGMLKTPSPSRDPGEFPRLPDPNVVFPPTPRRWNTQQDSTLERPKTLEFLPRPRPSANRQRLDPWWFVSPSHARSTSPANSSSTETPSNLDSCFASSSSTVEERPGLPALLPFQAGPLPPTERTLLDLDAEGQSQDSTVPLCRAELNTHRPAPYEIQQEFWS
- PROCEDURE DETAILS: Inhibition of MLK1 (unknown origin) by FRET method
pIC50: −log10 of the molar value.
QUANTITY NAME: pIC50

// query Identify pIC50 associated with the compound N#Cc1ccnc(Nc2cc(C3CCN(C4COC4)CC3)n(C3CCCC3)n2)c1
// result < 5.00

---

- Test system: human MDR1
- PROCEDURE DETAILS: Permeability across apical to basolateral side in MDCK cells transfected with human MDR1 at 5 uM by LC-MS/MS analysis
- TEST CONTEXT: dog
QUANTITY NAME: Papp A→B at 5 µM (×10⁻⁶ cm/s)
Just the number in ×10⁻⁶ cm/s, nothing appended.

// query Identify measured Papp A→B at 5 µM corresponding to N#Cc1ccnc(Nc2cc(C3CCN(C4COC4)C3)n(C3CCCC3)n2)c1 (racemic)
// result 5.6

// query Give the reported value of Papp A→B at 5 µM for this record: CC(C)n1nc(Nc2cc(C(F)(F)F)ccn2)cc1C1CCNCC1
// result 0.5

// query Retrieve Papp A→B at 5 µM measured for N#Cc1ccnc(Nc2cc(C3CCN(C4COC4)CC3)n(C3CCCC3)n2)c1 and print it.
// result 8.8

// query Retrieve Papp A→B at 5 µM measured for N#Cc1ccnc(Nc2cc(C3CCN(C4COC4)CC3)n(C3CCOC3)n2)c1 (racemic) and print it.
// result 1.9

// query Give reported Papp A→B at 5 µM value for N#Cc1ccnc(Nc2cc(C3CCN(C4COC4)CC3)n(CC3CCC3)n2)c1
// result 1.8

// query Using the record for N#Cc1ccnc(Nc2cc(C3CCN(C4COC4)CC3)n(C3CCOCC3)n2)c1 , state its measured Papp A→B at 5 µM.
// result 1.7

// query Read the entry N#Cc1ccnc(Nc2cc(C3CCOC3)n(C3CCCC3)n2)c1 (racemic) and write its reported Papp A→B at 5 µM.
// result 2.7

// query Item N#Cc1ccnc(Nc2cc(C3CCN(C4COC4)CC3)n(C3CCC(F)(F)C3)n2)c1 (racemic) : provide Papp A→B at 5 µM
// result 4.2

// query Specify Papp A→B at 5 µM for N#Cc1ccnc(Nc2cc(C3CN(C4COC4)C3)n(C3CCCC3)n2)c1 and stop.
// result 4.9

---

QUANTITY NAME: pIC50
pIC50 field: float, defined as -log10 of concentration (mol/L).

// query Please report pIC50 with High affinity nerve growth factor receptor (Homo sapiens) for item N#Cc1ccnc(Nc2cc(C3CCN(C4COC4)CC3)n(C3CCCC3)n2)c1 .
Sequence (P04629 whole entry): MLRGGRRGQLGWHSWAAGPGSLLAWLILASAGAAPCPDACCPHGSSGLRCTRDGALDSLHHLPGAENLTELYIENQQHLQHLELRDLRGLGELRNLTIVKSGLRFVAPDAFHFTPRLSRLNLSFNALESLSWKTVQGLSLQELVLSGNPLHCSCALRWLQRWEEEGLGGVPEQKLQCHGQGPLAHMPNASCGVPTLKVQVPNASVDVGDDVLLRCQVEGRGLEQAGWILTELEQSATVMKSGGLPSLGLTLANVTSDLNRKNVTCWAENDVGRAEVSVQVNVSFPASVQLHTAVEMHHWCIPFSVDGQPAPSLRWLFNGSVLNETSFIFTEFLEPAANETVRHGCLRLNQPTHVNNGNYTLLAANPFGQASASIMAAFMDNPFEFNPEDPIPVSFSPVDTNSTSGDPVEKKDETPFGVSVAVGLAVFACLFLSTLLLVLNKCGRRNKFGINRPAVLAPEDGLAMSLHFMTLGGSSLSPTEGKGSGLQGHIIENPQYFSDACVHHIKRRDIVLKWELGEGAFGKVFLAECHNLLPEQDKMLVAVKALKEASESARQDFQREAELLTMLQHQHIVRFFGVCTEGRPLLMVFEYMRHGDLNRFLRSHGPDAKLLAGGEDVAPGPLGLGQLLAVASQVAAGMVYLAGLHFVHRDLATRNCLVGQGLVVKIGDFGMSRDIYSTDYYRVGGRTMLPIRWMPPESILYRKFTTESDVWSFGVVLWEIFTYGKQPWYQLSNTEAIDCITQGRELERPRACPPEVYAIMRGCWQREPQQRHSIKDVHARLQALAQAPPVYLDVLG
// result 6.33

---

- PROCEDURE DETAILS: Cmax in mouse at 50 mg/kg, po
- Assay type: ADME, organism-based
- Parameters: dose 50 mg/kg, route oral
- TEST CONTEXT: in vivo
QUANTITY NAME: Cmax (µM)
Hi! Could you send only the number? It should be in µM, unit omitted.

// query Indicate its recorded Cmax; the molecule in question is N#Cc1ccnc(Nc2cc(C3CCN(C4COC4)CC3)n(C3CCCC3)n2)c1
// result 5.9

---

- SUBJECT OF TEST: Mitogen-activated protein kinase 9 (Homo sapiens)
- Sequence (P45984 whole entry): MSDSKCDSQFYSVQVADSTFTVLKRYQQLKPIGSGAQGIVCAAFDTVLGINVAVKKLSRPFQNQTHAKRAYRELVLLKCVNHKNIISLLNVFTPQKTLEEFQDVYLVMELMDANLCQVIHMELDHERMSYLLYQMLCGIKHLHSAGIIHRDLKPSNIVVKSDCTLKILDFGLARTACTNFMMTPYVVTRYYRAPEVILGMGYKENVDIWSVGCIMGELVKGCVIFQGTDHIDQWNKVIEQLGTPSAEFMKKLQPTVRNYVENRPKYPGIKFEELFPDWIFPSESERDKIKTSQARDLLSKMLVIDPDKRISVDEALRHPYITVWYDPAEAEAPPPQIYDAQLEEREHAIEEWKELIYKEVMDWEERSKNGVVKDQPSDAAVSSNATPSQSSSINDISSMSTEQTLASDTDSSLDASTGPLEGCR
- PROCEDURE DETAILS: Inhibition of JNK2 (unknown origin) by FRET method
QUANTITY NAME: IC50 (µM)
Enter your answer as a number in µM; do not include the unit.

// query Answer with the recorded IC50 of N#Cc1ccnc(Nc2cc(C3CCN(C4COC4)CC3)n(C3CCCC3)n2)c1 only.
// result 5

---

- SUBJECT OF TEST: Mitogen-activated protein kinase 8 (Homo sapiens, UniProt P45983)
- Sequence (P45983 whole entry): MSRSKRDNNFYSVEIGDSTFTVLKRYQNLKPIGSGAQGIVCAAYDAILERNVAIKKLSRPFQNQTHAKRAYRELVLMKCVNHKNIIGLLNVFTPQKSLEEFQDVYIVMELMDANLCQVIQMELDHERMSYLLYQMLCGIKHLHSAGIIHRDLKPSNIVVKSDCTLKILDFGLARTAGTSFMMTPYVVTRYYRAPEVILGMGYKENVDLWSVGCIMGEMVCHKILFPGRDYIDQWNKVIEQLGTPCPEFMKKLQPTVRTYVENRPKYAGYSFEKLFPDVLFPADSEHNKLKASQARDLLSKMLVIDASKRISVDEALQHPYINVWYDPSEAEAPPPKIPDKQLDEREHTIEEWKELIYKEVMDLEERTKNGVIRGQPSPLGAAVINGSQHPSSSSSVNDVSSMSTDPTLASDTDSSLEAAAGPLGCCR
- PROCEDURE DETAILS: Inhibition of JNK1 (unknown origin) by FRET method
QUANTITY NAME: IC50 (nM)
State just the number; it will be interpreted in nM.

// query Return reported IC50. Input compound: N#Cc1ccnc(Nc2cc(C3CCN(C4COC4)CC3)n(C3CCCC3)n2)c1
// result 1040

---

- SUBJECT OF TEST: Receptor-type tyrosine-protein kinase FLT3 (Homo sapiens, UniProt P36888)
- Sequence (P36888 whole entry): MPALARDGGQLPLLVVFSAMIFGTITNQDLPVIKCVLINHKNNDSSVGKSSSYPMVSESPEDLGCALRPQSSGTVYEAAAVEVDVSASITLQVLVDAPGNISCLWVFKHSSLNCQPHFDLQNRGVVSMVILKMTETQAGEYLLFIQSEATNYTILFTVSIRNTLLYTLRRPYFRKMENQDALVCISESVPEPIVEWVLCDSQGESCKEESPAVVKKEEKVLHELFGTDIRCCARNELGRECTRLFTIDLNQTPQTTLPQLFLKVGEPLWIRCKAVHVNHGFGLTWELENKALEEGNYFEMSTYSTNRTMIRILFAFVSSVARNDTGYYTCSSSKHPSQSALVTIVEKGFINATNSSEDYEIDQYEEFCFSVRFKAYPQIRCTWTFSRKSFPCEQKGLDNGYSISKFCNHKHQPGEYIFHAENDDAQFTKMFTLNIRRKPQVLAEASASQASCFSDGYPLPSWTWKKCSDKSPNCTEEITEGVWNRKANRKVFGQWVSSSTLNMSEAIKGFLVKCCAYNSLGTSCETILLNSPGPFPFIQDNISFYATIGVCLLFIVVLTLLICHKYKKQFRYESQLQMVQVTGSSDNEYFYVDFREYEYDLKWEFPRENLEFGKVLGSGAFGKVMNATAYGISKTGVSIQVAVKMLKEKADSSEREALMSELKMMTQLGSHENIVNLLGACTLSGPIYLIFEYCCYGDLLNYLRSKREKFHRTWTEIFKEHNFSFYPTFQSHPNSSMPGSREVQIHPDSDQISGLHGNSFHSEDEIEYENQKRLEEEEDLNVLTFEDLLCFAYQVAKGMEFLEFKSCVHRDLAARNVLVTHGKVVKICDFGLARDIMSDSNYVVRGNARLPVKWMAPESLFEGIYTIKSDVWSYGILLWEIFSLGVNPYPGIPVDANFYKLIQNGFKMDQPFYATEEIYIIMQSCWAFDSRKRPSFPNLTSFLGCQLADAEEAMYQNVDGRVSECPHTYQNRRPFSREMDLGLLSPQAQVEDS
QUANTITY NAME: pIC50
// pIC50 here means minus log10 of the molar concentration (mol/L)

// query Provide pIC50, recorded with Receptor-type tyrosine-protein kinase FLT3 (Homo sapiens, UniProt P36888), of N#Cc1ccnc(Nc2cc(C3CCN(C4COC4)CC3)n(C3CCCC3)n2)c1
// result 6.49

---

- PROCEDURE DETAILS: Oral bioavailability in […] rat at 1 or 5 mg/kg
- Assay type: ADME, organism-based
- TEST CONTEXT: in vivo
QUANTITY NAME: bioavailability
Give your result as the value with the unit written after it.

// query Identify measured bioavailability corresponding to N#Cc1ccnc(Nc2cc(C3CCN(C4COC4)CC3)n(C3CCCC3)n2)c1
// result 58%

---

- SUBJECT OF TEST: Dual specificity mitogen-activated protein kinase kinase 7 (Homo sapiens, UniProt O14733)
- Sequence (O14733 whole entry): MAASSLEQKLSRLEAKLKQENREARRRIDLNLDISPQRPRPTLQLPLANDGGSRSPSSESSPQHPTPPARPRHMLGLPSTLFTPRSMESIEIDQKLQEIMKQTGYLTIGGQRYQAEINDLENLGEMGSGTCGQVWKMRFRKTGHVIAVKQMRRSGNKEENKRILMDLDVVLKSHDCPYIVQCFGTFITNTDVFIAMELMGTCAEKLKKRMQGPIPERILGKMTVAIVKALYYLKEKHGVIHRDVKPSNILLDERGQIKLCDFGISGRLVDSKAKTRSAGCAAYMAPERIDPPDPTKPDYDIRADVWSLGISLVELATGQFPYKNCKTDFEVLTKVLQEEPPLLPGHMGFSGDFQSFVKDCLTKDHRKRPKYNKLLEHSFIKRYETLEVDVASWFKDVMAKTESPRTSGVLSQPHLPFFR
- PROCEDURE DETAILS: Inhibition of MKK7 (unknown origin) using KFMMpTPYVVTR substrate incubated for 1 hr measured by MpTPpYV probe-based fluorescence polarization assay
QUANTITY NAME: IC50

// query Quickly give me recorded IC50 for N#Cc1ccnc(Nc2cc(C3CCN(C4COC4)CC3)n(C3CCCC3)n2)c1
// result > 5 µM
